Ref: ChEMBL document CHEMBL2177009

# Tested on: DU-145
# assay comment: Metabolic stability in human DU145 cells assessed as intracellular compound level per ug DNA at 100 uM after 72 hrs in presence of serum amine oxidases inhibitor aminoguanidine
# Type: ADME, cell-based
# setup conditions: du-145, 72 h
metric: Drug metabolism (pmol)

* C[C@H](N)CCNCCCCN | 311
* CC(N)CCCNCCCN (centres undefined) | 332
* CC(CCN)NCCCCN.Cl (centres undefined) | 176
* CC(CN)CNCCCCN.Cl (centres undefined) | 134

====

# Test system: DU-145
# assay comment: Metabolic stability in human DU145 cells assessed as intracellular spermine level per ug DNA at 100 uM after 72 hrs in presence of serum amine oxidases inhibitor aminoguanidine (reference value: 154 +/- 7 pmol/ug DNA)
# Type: ADME, cell-based
# setup conditions: du-145, 72 h
metric: Drug metabolism (pmol)

* CC(CCN)NCCCCN.Cl (centres undefined) | 115
* CC(CN)CNCCCCN.Cl (centres undefined) | 75
* C[C@H](N)CCNCCCCN | 74
* CC(N)CCCNCCCN (centres undefined) | 70

====

# Test system: DU-145
# assay comment: Metabolic stability in human DU145 cells assessed as intracellular compound/methylspermine level per ug DNA at 100 uM after 72 hrs in presence of serum amine oxidases inhibitor aminoguanidine
# Assay type: ADME, cell-based
# setup conditions: du-145, 72 h
Readings of Drug metabolism for the listed compounds
metric: Drug metabolism (pmol)

- CC(CCN)NCCCCN.Cl (centres undefined): 176
- C[C@H](N)CCNCCCCN: 371
- CC(CN)CNCCCCN.Cl (centres undefined): 214
- CC(N)CCCNCCCN (centres undefined): 375

====

# System: DU-145
# assay comment: Metabolic stability in human DU145 cells assessed as intracellular spermine level per ug DNA at 100 uM after 48 hrs in presence of serum amine oxidases inhibitor aminoguanidine (reference value: 133 +/- 4 pmol/ug DNA)
# Assay type: ADME, cell-based
# setup conditions: du-145, 48 h
compounds and their reported Drug metabolism
metric: Drug metabolism (pmol)

- CC(CCN)NCCCCN.Cl (centres undefined): 103
- CC(CN)CNCCCCN.Cl (centres undefined): 72
- CC(N)CCCNCCCN (centres undefined): 57
- C[C@H](N)CCNCCCCN: 55

====

# Tested on: DU-145
# assay comment: Metabolic stability in human DU145 cells assessed as intracellular compound level per ug DNA at 100 uM after 48 hrs in presence of serum amine oxidases inhibitor aminoguanidine
# Type: ADME, cell-based
# setup conditions: du-145, 48 h
metric: Drug metabolism (pmol)

- C[C@H](N)CCNCCCCN: 239
- CC(CCN)NCCCCN.Cl (centres undefined): 168
- CC(CN)CNCCCCN.Cl (centres undefined): 135
- CC(N)CCCNCCCN (centres undefined): 287

====

Drug metabolism values for the compounds below.
# Test system: DU-145
# assay comment: Metabolic stability in human DU145 cells assessed as intracellular spermine level per ug DNA at 100 uM after 24 hrs in presence of serum amine oxidases inhibitor aminoguanidine (reference value: 122 +/- 11 pmol/ug DNA)
# Format: ADME, cell-based
# setup conditions: du-145, 24 h
metric: Drug metabolism (pmol)

• CC(CCN)NCCCCN.Cl (centres undefined) = 92
• CC(N)CCCNCCCN (centres undefined) = 83
• C[C@H](N)CCNCCCCN = 62
• CC(CN)CNCCCCN.Cl (centres undefined) = 67

====

# Test system: DU-145
# assay comment: Metabolic stability in human DU145 cells assessed as intracellular compound/methylspermine level per ug DNA at 100 uM after 24 hrs in presence of serum amine oxidases inhibitor aminoguanidine
# Type: ADME, cell-based
# setup conditions: du-145, 24 h
The following compounds are shown together with reported Drug metabolism values.
metric: Drug metabolism (pmol)

• CC(CCN)NCCCCN.Cl (centres undefined) = 181
• CC(CN)CNCCCCN.Cl (centres undefined) = 200
• CC(N)CCCNCCCN (centres undefined) = 257
• C[C@H](N)CCNCCCCN = 301

====

Documented Drug metabolism across a set of compounds
# System: DU-145
# assay comment: Metabolic stability in human DU145 cells assessed as intracellular spermidine level per ug DNA at 100 uM after 72 hrs in presence of serum amine oxidases inhibitor aminoguanidine (reference value: 137 +/- 3 pmol/ug DNA)
# Assay type: ADME, cell-based
# setup conditions: du-145, 72 h
metric: Drug metabolism (pmol)

* C[C@H](N)CCNCCCCN | 16
* CC(CN)CNCCCCN.Cl (centres undefined) | 38
* CC(CCN)NCCCCN.Cl (centres undefined) | 22
* CC(N)CCCNCCCN (centres undefined) | 20

====

# Test system: DU-145
# assay comment: Metabolic stability in human DU145 cells assessed as intracellular compound level per ug DNA at 100 uM after 24 hrs in presence of serum amine oxidases inhibitor aminoguanidine
# Type: ADME, cell-based
# setup conditions: du-145, 24 h
metric: Drug metabolism (pmol)

• CC(CN)CNCCCCN.Cl (centres undefined) = 133
• CC(CCN)NCCCCN.Cl (centres undefined) = 181
• CC(N)CCCNCCCN (centres undefined) = 257
• C[C@H](N)CCNCCCCN = 264

====

# assay comment: Cytotoxicity against human DU145 cells assessed as cell growth at 100 uM after 72 hrs in presence of serum amine oxidase inhibitor aminoguanidine (RVb = 49 +/- 2 pmol/10^6 cells)
# Type: cell-based, DU-145
# setup conditions: read-out: Activity
Flag rule - viability at 72 h, 100 µM less than 90% flags criterion met; the remaining entries get criterion not met.

- C[C@H](N)CCNCCCCN: criterion met
- CC(N)CCCNCCCN (stereo not given): criterion not met
- CC(CN)CNCCCCN.Cl (stereo not given): criterion met

====

Listed here: items and their measured Drug metabolism.
# Tested on: DU-145
# assay comment: Metabolic stability in human DU145 cells assessed as intracellular compound/methylspermine level per ug DNA at 100 uM after 48 hrs in presence of serum amine oxidases inhibitor aminoguanidine
# Type: ADME, cell-based
# setup conditions: du-145, 48 h
metric: Drug metabolism (pmol)

* C[C@H](N)CCNCCCCN | 283
* CC(CCN)NCCCCN.Cl (centres undefined) | 168
* CC(N)CCCNCCCN (centres undefined) | 326
* CC(CN)CNCCCCN.Cl (centres undefined) | 202

====

Catalogue of Drug metabolism values
# System: DU-145
# assay comment: Metabolic stability in human DU145 cells assessed as intracellular spermidine level per ug DNA at 100 uM after 48 hrs in presence of serum amine oxidases inhibitor aminoguanidine (reference value: 137 +/- 5 pmol/ug DNA)
# Type: ADME, cell-based
# setup conditions: du-145, 48 h
metric: Drug metabolism (pmol/ug DNA)

- CC(N)CCCNCCCN (centres undefined): 18
- CC(CCN)NCCCCN.Cl (centres undefined): 18
- C[C@H](N)CCNCCCCN: 11
- CC(CN)CNCCCCN.Cl (centres undefined): 38

====

# Test system: DU-145
# assay comment: Metabolic stability in human DU145 cells assessed as intracellular spermidine level per ug DNA at 100 uM after 24 hrs in presence of serum amine oxidases inhibitor aminoguanidine (reference value: 154 +/- 7 pmol/ug DNA)
# Format: ADME, cell-based
# setup conditions: du-145, 24 h
metric: Drug metabolism

- CC(N)CCCNCCCN (centres undefined): 30 pmol/ug DNA
- CC(CN)CNCCCCN.Cl (centres undefined): 39 pmol/ug DNA
- CC(CCN)NCCCCN.Cl (centres undefined): 23 pmol/ug DNA
- C[C@H](N)CCNCCCCN: 15 pmol/ug DNA
